// data source = paper PMC9405596

test system: bloodstream form of T. b. brucei (strain 427); assay: Bioluminescence viability assay against bloodstream T. b. brucei expressing luciferase; conditions: read-out: T. brucei bloodstream IC50; 24 h, bioluminescence
Measurement kind: IC50
For clarity, give the value followed by its unit.

Data request: What IC50 value was documented for this molecule, Cc1nn(-c2ccccc2)c(O)c1C(c1ccc(O)c(O)c1)c1c(C)nn(-c2ccccc2)c1O [Compound 2n] ?
Data returned: 10.2 µM

Data request: Then this molecule: COC(=O)c1ccc(C(c2c(C)nn(-c3ccccc3)c2O)c2c(C)nn(-c3ccccc3)c2O)cc1 [Compound 2q]
Data returned: 5.9 µM

Data request: Moving on to the next molecule: Cc1nn(-c2ccccc2)c(O)c1C(c1cccc(C(F)(F)F)c1)c1c(C)nn(-c2ccccc2)c1O [Compound 2w]
Data returned: 8.9 µM

====

Measurement kind: melting point

Data request: I have this compound here, Cc1nn(-c2ccccc2)c(O)c1C(c1ccccc1)c1c(C)nn(-c2ccccc2)c1O , and I need its recorded melting point.
Data returned: 159.5 to 161.1 °C

Data request: Next record, please: Cc1nn(-c2ccccc2)c(O)c1C(c1cccc(F)c1)c1c(C)nn(-c2ccccc2)c1O
Data returned: 178 to 179 °C

Data request: Same lookup for Cc1nn(-c2ccccc2)c(O)c1C(c1cc(O)ccc1[N+](=O)[O-])c1c(C)nn(-c2ccccc2)c1O , please.
Data returned: 205 to 207 °C (dec.)

Data request: Repeat for the following compound: Cc1nn(-c2ccccc2)c(O)c1C(c1ccccc1C(F)(F)F)c1c(C)nn(-c2ccccc2)c1O
Data returned: 245 to 248 °C

Data request: What do we get for Cc1nn(-c2ccccc2)c(O)c1C(c1cccc(O)c1)c1c(C)nn(-c2ccccc2)c1O ?
Data returned: 165 to 167 °C

Data request: Let us now turn to Cc1nn(-c2ccccc2)c(O)c1C(c1ccc(N(C)C)cc1)c1c(C)nn(-c2ccccc2)c1O
Data returned: 188.8 to 189.6 °C

Data request: Item: Cc1nn(-c2ccccc2)c(O)c1C(c1ccc(F)cc1)c1c(C)nn(-c2ccccc2)c1O
Data returned: 183.8 to 185.8 °C

Data request: Moving on to Cc1nn(-c2ccccc2)c(O)c1C(c1ccc(OC(F)(F)F)cc1)c1c(C)nn(-c2ccccc2)c1O
Data returned: 174.5 to 176 °C

Data request: Now give it for COc1cc(C(c2c(C)nn(-c3ccccc3)c2O)c2c(C)nn(-c3ccccc3)c2O)cc(OC)c1O too.
Data returned: 208 to 209.5 °C

Data request: Repeat with CSc1ccc(C(c2c(C)nn(-c3ccccc3)c2O)c2c(C)nn(-c3ccccc3)c2O)cc1
Data returned: 209.1 to 211.3 °C

Data request: Entry to check: Cc1nn(-c2ccccc2)c(O)c1C(c1ccccc1O)c1c(C)nn(-c2ccccc2)c1O
Data returned: 219.5 to 220.6 °C

Data request: Same lookup for COc1ccc(C(c2c(C)nn(-c3ccccc3)c2O)c2c(C)nn(-c3ccccc3)c2O)cc1O , please.
Data returned: 200 to 202 °C

Data request: Ok, now COc1ccc(C(c2c(C)nn(-c3ccccc3)c2O)c2c(C)nn(-c3ccccc3)c2O)cc1
Data returned: 176 to 177 °C

Data request: Similarly, Cc1nn(-c2ccccc2)c(O)c1C(c1ccc(O)cc1)c1c(C)nn(-c2ccccc2)c1O ?
Data returned: 217.2 to 218.9 °C

Data request: For COc1cccc(C(c2c(C)nn(-c3ccccc3)c2O)c2c(C)nn(-c3ccccc3)c2O)c1 then?
Data returned: 205.7 to 207.1 °C

Data request: Next entry: Cc1nn(-c2ccccc2)c(O)c1C(c1ccccc1[N+](=O)[O-])c1c(C)nn(-c2ccccc2)c1O
Data returned: 210 to 211 °C
